- System under test: myeloperoxidase (MPO) (Homo sapiens)
- Sequence (P05164 49-745): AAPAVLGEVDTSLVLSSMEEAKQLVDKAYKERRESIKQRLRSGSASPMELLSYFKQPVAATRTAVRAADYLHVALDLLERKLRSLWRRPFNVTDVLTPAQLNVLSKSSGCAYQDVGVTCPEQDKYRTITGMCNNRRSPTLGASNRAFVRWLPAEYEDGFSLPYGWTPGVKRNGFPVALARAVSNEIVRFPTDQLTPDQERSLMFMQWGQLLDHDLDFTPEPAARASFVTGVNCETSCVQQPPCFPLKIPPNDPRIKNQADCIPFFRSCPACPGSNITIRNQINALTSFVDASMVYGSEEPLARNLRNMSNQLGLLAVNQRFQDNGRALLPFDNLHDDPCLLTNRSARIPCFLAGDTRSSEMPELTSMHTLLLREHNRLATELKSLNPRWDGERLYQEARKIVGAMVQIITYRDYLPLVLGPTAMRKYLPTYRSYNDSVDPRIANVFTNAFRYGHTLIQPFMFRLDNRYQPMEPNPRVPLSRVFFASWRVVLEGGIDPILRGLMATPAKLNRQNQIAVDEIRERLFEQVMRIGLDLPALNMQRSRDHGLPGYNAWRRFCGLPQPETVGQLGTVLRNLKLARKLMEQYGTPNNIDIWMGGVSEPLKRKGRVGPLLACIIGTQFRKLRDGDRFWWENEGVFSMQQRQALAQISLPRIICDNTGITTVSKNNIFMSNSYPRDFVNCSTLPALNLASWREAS
- Assay explanation: MPO peroxidation assay (Amplex Red assay)
- Assay type: biochemical
- Measurement setup: MPO peroxidation, potency range class; read-out: Amplex Red IC50
pIC50: −log10 of the molar value.
Recorded pIC50 for the following compounds

Consider the reported pIC50 for these compounds:
In [3]: df
Out[3]:
                                   compound  measured_quantity        result
0  N#Cc1cc(-c2ccc(F)nc2F)ccc1COc1cc(N)nc2[nH]nnc12 [Example 324]              pIC50  7.00 to 9.00
1  Nc1cc(OCc2cccc(-c3ccc(C(=O)Nc4ccccc4)cc3)c2)c2nn[nH]c2n1 [Example 104]              pIC50  6.00 to 7.00
2  Nc1cc(OCc2cc(C(=O)NCC3CC3)ccc2F)c2nn[nH]c2n1 [Example 162]              pIC50  7.00 to 9.00
3  CN(C(=O)c1ccc(COc2cc(N)nc3[nH]nnc23)c(Cl)c1)c1ccccc1 [Example 203]              pIC50  7.00 to 9.00

The reported value for Cc1cn(-c2cccc(COc3cc(N)nc4[nH]nnc34)c2)cn1 [Example 84] in terms of pIC50 is 6.00 to 7.00

The reported value for Cn1nc(C(F)(F)F)cc1-c1cccc(COc2cc(N)nc3[nH]nnc23)c1 [Example 79] in terms of pIC50 is 6.00 to 7.00

The reported value for Nc1cc(OCc2c(F)cc(-c3ccc(F)nc3F)cc2F)c2nn[nH]c2n1 [Example 340] in terms of pIC50 is 6.00 to 7.00

The reported value for COCCNC(=O)c1ccc(F)c(COc2cc(N)nc3[nH]nnc23)c1 [Example 158] in terms of pIC50 is 7.00 to 9.00

The reported value for Nc1cc(OCc2cc(C(F)(F)F)cc(C(F)(F)F)c2)c2nn[nH]c2n1 [Example 29] in terms of pIC50 is 7.00 to 9.00

The reported value for COc1cc(-n2cccn2)ccc1COc1cc(N)nc2[nH]nnc12 [Example 243] in terms of pIC50 is 7.00 to 9.00

The reported value for CN(C(=O)c1ccc(F)c(COc2cc(N)nc3[nH]nnc23)c1)c1ccccc1 [Example 159] in terms of pIC50 is 7.00 to 9.00

Source of measurements: patent US10316035B2
